The values you see were collected from PubChem BioAssay.

- test.method.notes: endothelial E-selectin expression blockers – imaging, HUVEC, immunofluorescence, MLSMR starter and 10KST1 sets, primary screen (AID 487);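 note: signal is fraction of cell area covered by stained E-selectin grains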
- condition.info: HUVEC TNFalpha-induced E-selectin immunofluorescence imaging, at 2 µM; stronger effect = higher value
Overview of recorded inhibition for various compounds
readout: inhibition (%)

> print(dat)
                                    compound  result.value
 1   O=C(CSc1nnnn1-c1ccc2c(c1)OCO2)NCc1cccs1         -66.6
 2  CCOC(=O)C1CCN(C(c2cc3cc(C)cc(C)c3[nH]c2=O)c2nnnn2C2CCCCC2)CC1 (stereo unspecified)         -75.4
 3  CCOC(=O)N1CCN(c2cc(=O)n(-c3ccccc3Cl)c(=O)[nH]2)CC1            15
 4  CCCNC(=O)NC1C(NC(=O)NCCC)N(C)C(=O)N1C (stereo unspecified)         -60.1
 5  CCOc1ccc(S(=O)(=O)N2CCN(c3ccc(C)cc3C)CC2)cc1         -30.7
 6  Cc1ccc(N(C(C)C(=O)Nc2ccc(S(=O)(=O)N3CCOCC3)cc2)S(C)(=O)=O)cc1 (stereo unspecified)          -0.3
 7  N#Cc1nc(-c2ccco2)oc1N1CCN(c2cccc(Cl)c2)CC1         -75.1
 8  O=C1c2ccccc2C(Nc2ccc3c(c2)OCCO3)N1Cc1ccc2c(c1)OCO2 (stereo unspecified)         -14.2
 9  CCOC(=O)N1CCC(Nc2ncnc3c2cnn3-c2ccc(C)cc2C)CC1         -36.3
10      O=S(=O)(Nc1ccc(Cc2ccncc2)cc1)N1CCCC1          -102
11  COc1cccc(C(=O)NCc2nnc(SCC(=O)Nc3nccs3)n2-c2ccccc2)c1         -20.4
12  COc1ccc(CCNC(=O)C2CCN(S(=O)(=O)c3cc(OC)ccc3OC)CC2)cc1         -26.1
13                 COc1ccc(Cl)c(NCCC(=O)O)c1         -96.7
14  COc1ccc(C)cc1NC(=O)C1CCN(S(=O)(=O)c2cccc3cccnc23)CC1          -6.8
15  COc1cc(OC)cc(OCC(O)Cn2cnc(-c3ccccc3)c2)c1 (stereo unspecified)          11.1
16  O=C1CC(C(=O)Nc2ccc(Br)cc2)C2(CCCC2)O1 (stereo unspecified)           -70
17  CCN(CC)CCCNC(=O)c1cn(C)c2ccc(S(=O)(=O)N(C)C)cc2c1=O          69.2
18  CN(c1ccccc1C(=O)N1CCN(c2cccc(Cl)c2)CC1)S(C)(=O)=O          18.2
19  CC(=O)N1CCN(c2ccc(N=Cc3c(O)n(Cc4ccccc4)c(=O)[nH]c3=O)cc2)CC1          -9.7
20      O=C(CSc1nnc(-c2ccccc2F)o1)OCc1ccccc1         -69.6
21  COc1cccc(-c2nc(CS(=O)(=O)CC(=O)Nc3cc(C)ccc3C)c(C)o2)c1         -21.2

* * *

- test.method.notes: TLR3 IRF3 reporter activation blockers – cell-based, poly I:C stimulus, luciferase, 10K MLSCN set, primary screen (AID 602277)
- condition.info: HEK293-TLR3 RL24 IRF3 luciferase reporter, at 10 µM, stronger effect = higher value
readout: inhibition (%)

> print(dat)
                             chemical.smiles     readout  result.value
 1     Cc1nnc(SCc2cc(=O)[nH]c(N3CCCCC3)n2)s1  inhibition          19.7
 2  Cc1ccc(Br)cc1S(=O)(=O)N1CCN(c2ccccc2)CC1  inhibition          31.3
 3  Cc1ccc2[nH]c(=O)c(CN(CCCN3CCOCC3)C(=O)Nc3cccc(Cl)c3)cc2c1  inhibition           4.8
 4               Cc1cc(C(=O)NCCCc2ccccc2)no1  inhibition         -13.4
 5  CCOc1ccc(N(CC(=O)NC2CCCCC2)S(=O)(=O)c2c(C)noc2C)cc1  inhibition          17.1
 6      Cc1cc(Oc2ccc(Cl)cc2)nc(-c2ccccc2O)n1  inhibition         -8.94
 7  CCn1cc(S(=O)(=O)CC(=O)Nc2ccc(OC)cc2)c2ccccc21  inhibition          16.6
 8            COc1ccc(CCNC(=O)c2ccncc2)cc1OC  inhibition          19.9
 9        O=C(Nc1ccc(N2CCCC2)cc1)c1cccc(F)c1  inhibition         -67.8
10  COCCn1nnnc1CN(CCCN1CCOCC1)Cc1cc2c(C)ccc(C)c2[nH]c1=O  inhibition          15.5
11  Cc1ccc(-n2ncc3c(=O)[nH]c(SC(C)C)nc32)cc1  inhibition          21.6
